# Tested on: RARb:RXRa (NR concentration 270 nM, RXRa partner concentration 90 nM)
# Measurement protocol: PBM binding z-score (relative to random genomic background probes); higher = stronger binding; sequences stand for … in GC…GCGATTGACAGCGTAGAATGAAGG
Measured quantity: PBM binding z-score
Write the value as a bare number.

Below, each entry is followed by its recorded PBM binding z-score result.
| Primary sequence | PBM binding z-score |
| --- | --- |
| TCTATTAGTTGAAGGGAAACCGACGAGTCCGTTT | 0.377 |
| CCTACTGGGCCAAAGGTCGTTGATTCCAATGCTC | 1.97 |
| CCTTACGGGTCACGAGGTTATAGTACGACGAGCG | 4.59 |
| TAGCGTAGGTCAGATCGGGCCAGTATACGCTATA | 3.07 |
| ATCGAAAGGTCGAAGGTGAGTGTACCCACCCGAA | 3.86 |
| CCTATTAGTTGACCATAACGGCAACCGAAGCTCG | 0.584 |

Q: Query for RARb:RXRa (NR concentration 270 nM, RXRa partner concentration 90 nM): what PBM binding z-score does the record show for "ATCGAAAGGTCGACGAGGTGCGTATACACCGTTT" ?
Ans: 3.79

Q: Query for RARb:RXRa (NR concentration 270 nM, RXRa partner concentration 90 nM): what PBM binding z-score does the record show for "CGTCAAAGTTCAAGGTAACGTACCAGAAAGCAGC" ?
Ans: 5.12

Q: Query for RARb:RXRa (NR concentration 270 nM, RXRa partner concentration 90 nM): what PBM binding z-score does the record show for "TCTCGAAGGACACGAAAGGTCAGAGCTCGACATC" ?
Ans: 4.23
